System: Ewing sarcoma cell lines
PROCEDURE_DETAILS: Dose-response cytotoxicity in Ewing sarcoma cell lines
Type: cell-based
STATED_CONDITIONS: 144 hours; all EWS cell lines tested excluding ES-6
pEC50: −log10 of the molar value.
ENDPOINT_LABEL: pEC50

(Q) Notebook entry, Ewing sarcoma cell lines assay: pEC50 of CCc1c2c(nc3ccc(O)cc13)-c1cc3c(c(=O)n1C2)COC(=O)[C@]3(O)CC = ?
(A) > 8.00

###

Please go through the items and note down their concentration at 12 h.
PROCEDURE_DETAILS: Plasma and tumor pharmacokinetics in mice with orthotopic xenografts
Type: in vivo, CD1-nude mice
STATED_CONDITIONS: CD1-nude, mouse, orthotopic xenograft tumor, po

(Q) Give its concentration at 12 h value. Item: Cn1ncnc1[C@H]1c2n[nH]c(=O)c3cc(F)cc(c23)N[C@@H]1c1ccc(F)cc1 [BMN-673]
(A) ≥ 15 nM

(Q) Give its concentration at 12 h value. Item: C[C@]1(c2nc3c(C(N)=O)cccc3[nH]2)CCCN1 [veliparib]
(A) ≥ 50 nM

(Q) Give its concentration at 12 h value. Item: O=C(c1cc(Cc2n[nH]c(=O)c3ccccc23)ccc1F)N1CCN(C(=O)C2CC2)CC1 [olaparib]
(A) ≥ 90 nM
